Data provenance is paper PMC8222333.

target: dAsCas12a S542R (Acidaminococcus sp., UniProt U2UMQ6 1-1307, S542R;D908A;E993A;D1235A); test: Spec-seq (native PAGE EMSA with sequencing of bound and unbound); 25 mM Tris-HCl pH 7.4, 150 mM KCl, 5 mM MgCl2, 10% glycerol, 1 mM DTT, 40 ng/uL salmon sperm DNA; 400 nM Cas12a, 480 nM crRNA, 50 nM library, 37 C 1 h; native PAGE at room temperature; high values mean tight binding; conditions: protein: recombinant;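 also: relative affinity from the bound to unbound sequence frequency ratio in Spec-seq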
Entries and their measured binding signal follow.
readoutLabel: binding signal (lnKA)

CTAC (dsDNA) DNA 1: GCTATCTAGTGCTCAGTACGCACTGCTACAGGAAACTTCTGGCAGGACCAGGTCATGAGATCGGAAGAGCACACGTCTGAACTCCAGTCA DNA 2: TGACTGGAGTTCAGACGTGTGCTCTTCCGATCTCATGACCTGGTCCTGCCAGAAGTTTCCTGTAGCAGTGCGTACTGAGCACTAGATAGC RNA: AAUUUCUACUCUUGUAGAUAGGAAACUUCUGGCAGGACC | -8.27
GTGA (dsDNA) DNA 1: GCTATCTAGTGCTCAGTACGCACTGGTGAAGGAAACTTCTGGCAGGACCAGGTCATGAGATCGGAAGAGCACACGTCTGAACTCCAGTCA DNA 2: TGACTGGAGTTCAGACGTGTGCTCTTCCGATCTCATGACCTGGTCCTGCCAGAAGTTTCCTTCACCAGTGCGTACTGAGCACTAGATAGC RNA: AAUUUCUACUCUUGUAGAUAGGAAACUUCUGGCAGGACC | -7.67
TGCC (dsDNA) DNA 1: GCTATCTAGTGCTCAGTACGCACTGTGCCAGGAAACTTCTGGCAGGACCAGGTCATGAGATCGGAAGAGCACACGTCTGAACTCCAGTCA DNA 2: TGACTGGAGTTCAGACGTGTGCTCTTCCGATCTCATGACCTGGTCCTGCCAGAAGTTTCCTGGCACAGTGCGTACTGAGCACTAGATAGC RNA: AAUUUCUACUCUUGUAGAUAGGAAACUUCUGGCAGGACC | -7.76
